- TARGET_DESC: T1, human TREM2 expressed on cells (human, UniProt Q9NZC2 19-230)
- T1 construct: BW5147.G.1.4 cells stably expressing human TREM2 together with Dap12, or endogenous TREM2 of primary human myeloid cells; also called huT2 BW; hTREM2 expressing cell line
- T1 sequence: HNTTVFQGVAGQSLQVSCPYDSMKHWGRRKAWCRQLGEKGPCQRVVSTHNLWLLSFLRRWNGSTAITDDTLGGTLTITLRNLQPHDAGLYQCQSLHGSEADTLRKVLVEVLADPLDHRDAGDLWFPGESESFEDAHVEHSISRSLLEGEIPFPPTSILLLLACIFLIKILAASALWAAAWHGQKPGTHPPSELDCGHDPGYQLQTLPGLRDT
- ASSAY_SUMMARY: FACS, hTREM2 BW cells
Would you mind telling me the reported pKd of each entry?
Give bare numbers, as −log10 of the molar value.

The following binders have reported results that may help.
Q: Give the measured pKd of AL2p-55 (antibody, V domains shown, same VH/VL entries as AL2p-56; Fab and IgG formats under one id) VH: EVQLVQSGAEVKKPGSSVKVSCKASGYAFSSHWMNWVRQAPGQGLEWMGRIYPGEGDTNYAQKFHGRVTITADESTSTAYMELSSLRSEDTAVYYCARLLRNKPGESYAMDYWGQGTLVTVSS VL: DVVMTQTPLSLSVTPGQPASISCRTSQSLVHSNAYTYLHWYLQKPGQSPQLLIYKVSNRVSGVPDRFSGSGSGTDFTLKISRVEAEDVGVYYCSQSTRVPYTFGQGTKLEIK .
Result: 8.69

Q: Same again, this time with AL2p-36 (antibody, V domains shown, Fab and IgG formats under one id) VH: QVQLVQSGAEVKKPGASVKVSCKASGYAFSSSWMNWVRQAPGQRLEWIGRIYPGDGDTNYARKFQGRVTITADTSASTAYMELSSLRSEDTAVYYCARLLRNQPGASYAMDYWGQGTLVTVSS VL: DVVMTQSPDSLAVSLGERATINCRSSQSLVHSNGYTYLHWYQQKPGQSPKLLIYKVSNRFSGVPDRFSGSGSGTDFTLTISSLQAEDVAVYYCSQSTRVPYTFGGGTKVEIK
Result: 8.77

Q: Next binder: AL2p-25 (antibody, V domains shown, Fab and IgG formats under one id) VH: QVQLVQSGAEVKKPGSSVKVSCKASGYAFSSHWMNWVRQAPGQGLEWMGRIYPGGGDTNYAQKFRGRVTITADESTSTAYMELSSLRSEDTAVYYCARLLRNQPGESYAMDYWGQGTLVTVSS VL: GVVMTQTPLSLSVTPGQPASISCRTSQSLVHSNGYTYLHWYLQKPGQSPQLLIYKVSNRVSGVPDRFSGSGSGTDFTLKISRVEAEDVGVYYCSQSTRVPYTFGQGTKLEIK
Result: 8.77

Q: Try AL2p-32 (antibody, V domains shown, Fab and IgG formats under one id) VH: QVQLVQSGAEVKKPGSSVKVSCKASGYAFSSEWMNWVRQAPGQGLEWMGRIYPGDGDTNYAQKFQGRVTITADESTSTAYMELSSLRSEDTAVYYCARLLRNQPGESYAMDYWGQGTLVTVSS VL: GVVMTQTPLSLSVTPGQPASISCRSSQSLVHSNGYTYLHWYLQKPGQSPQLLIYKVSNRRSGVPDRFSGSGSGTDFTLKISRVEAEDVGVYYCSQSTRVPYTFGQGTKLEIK next.
Result: 8.55

Turning now to a further binder:
Q: // returns reported pKd for input AL2p-42 (antibody, V domains shown, Fab and IgG formats under one id) VH: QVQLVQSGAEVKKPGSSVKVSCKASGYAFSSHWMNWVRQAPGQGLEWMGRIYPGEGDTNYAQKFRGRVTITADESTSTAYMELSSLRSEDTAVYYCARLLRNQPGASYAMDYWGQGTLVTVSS VL: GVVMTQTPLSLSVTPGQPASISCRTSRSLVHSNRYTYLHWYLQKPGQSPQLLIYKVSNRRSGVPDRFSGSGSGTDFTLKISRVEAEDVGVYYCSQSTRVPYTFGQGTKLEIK
Result: 8.72
